Assay: Half life in rat at 1 mg/kg
Type: ADME, organism-based
Parameters: dose 1 mg/kg
Conditions: in vivo
endpoint_label: half-life (min)
Could you give me the number in min? Just the number is fine.

Exam item: Given `OCCOCCNc1cc2c(NC3Cc4ccccc4C3)ncnc2cn1` , respond with its half-life.
Marked response: 18

----------
Tested on: Liver microsomes
Experiment: Metabolic stability in rat liver microsomes assessed as intrinsic clearance
Type: ADME, Microsome
endpoint_label: clearance (µL/min/mg)
Could you give me the number in µL/min/mg? Just the number is fine.

Exam item: With Liver microsomes as the test system, provide measured clearance for this molecule: `OCCOCCNc1cc2c(NC3Cc4ccccc4C3)ncnc2cn1`
Marked response: 30
